Measured values drawn from PubChem BioAssay AID1626 for this set.

# Assay text: M. tuberculosis H37Rv growth inhibitors, H37Rv strain (AID 1626);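 also: bacteria incubated seven days before Alamar blue readout; 0% = bacteria only wells and 100% = bacteria with antibiotic wells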
# Run conditions: hits give high values, concentration not given here
The campaign covered roughly 220,000 compounds. About 2,000 (0.91%) were called active. Inconclusive results (about 2%) are left out. The list is a sample of the results. Measured potencies and affinities stand elsewhere.
Value type: inhibition (%)
Dear colleague, please return just the value in %, with no unit written.

inhibition in this record for CCOc1ccccc1C1C(C#N)=C(N)Oc2cc(N)ccc21 (configuration not stated) : 8.36

inhibition in this record for Cc1ccc(-c2nn(-c3ccccc3)cc2/C=N/NC(=O)c2ccc(Br)o2)cc1 : 0.66

inhibition in this record for CCOc1ccc2nc(NC(=O)Nc3ccccc3)sc2c1 : 1.1

inhibition in this record for Cc1ccn2c(CNC(C)CCn3cccn3)c(C(=O)N3CCCCCC3)nc2c1 (configuration not stated) : -0.19

inhibition in this record for O=C(O)c1ccnc(SCC(=O)c2ccccc2)c1 : -4.56

inhibition in this record for CCCc1cc(C(N)=O)c(NC(C)=O)s1 : 2.59

inhibition in this record for O=C(NCCc1ccccc1)C1CC(=O)N(C2CCCCCC2)C1 (configuration not stated) : -3.62

inhibition in this record for COc1ccc(C(=O)OC(C(=O)c2ccc(C)cc2)c2ccccc2)cc1 (configuration not stated) : 9.22

inhibition in this record for CCOc1ccc(OCCN(C)Cc2ccccc2)cc1 : 4.01

inhibition in this record for COc1ccc(CCn2c(-c3ccc(Cl)cc3)n[nH]c2=S)cc1OC : 1.97

inhibition in this record for C1CSC2(N1)C1CC3CC2CC(C1)C31NCCS1 (configuration not stated) : -4.53

inhibition in this record for CCOc1ccc2nc(NC(=O)C3=NNC(=O)CC3)sc2c1 : 46.3

---

Kindly state inhibition for each of the entries shown.
# Assay text: M. tuberculosis H37Rv growth inhibitors, H37Rv strain (AID 1626);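 also: bacteria incubated seven days before Alamar blue readout; 0% = bacteria only wells and 100% = bacteria with antibiotic wells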
# Run conditions: hits give high values, concentration not given here
Among all 220,000 compounds or so, about 2,000 (0.91%) were called active. Inconclusive results (about 2%) are left out. Only a sample is shown. Measured potencies and affinities stand elsewhere.
Dear colleague, please return just the value in %, with no unit written.

inhibition in this record for CCNc1nc(SCCOc2ccc(Br)cc2)nc(N(C)C)n1 : -0.8

inhibition in this record for COC(=O)CSc1nc(-c2cccs2)ccc1C#N : -2.21

inhibition in this record for COC(=O)CSc1nc2cc(C)ccc2cc1C#N : -2.11

inhibition in this record for COc1ccc(C(=O)NCC2CCCO2)cc1OC (configuration not stated) : -3.63

inhibition in this record for COCCCNC(=O)c1ccc(CS(=O)(=O)c2ccc(Br)cc2)o1 : -8.42

inhibition in this record for O=S(=O)(c1cccc2cccnc12)N1CCN(Cc2ccc3c(c2)OCO3)CC1 : -5.89

inhibition in this record for COC(=O)c1sc2cnccc2c1N : -1.77

inhibition in this record for O=C(COC(=O)c1ccc(F)cc1F)Nc1ccc2[nH]c(=O)[nH]c2c1 : 0.74

inhibition in this record for CC1CC(=O)N(CC(=O)NCc2ccco2)c2ccccc2S1 (configuration not stated) : -7.83

inhibition in this record for O=C(COc1ncnc2ccccc12)c1ccc2c(c1)OCCO2 : -5.58

inhibition in this record for CC(C)OCCCNC(=O)Nc1cccc2ccccc12 : -3.82

inhibition in this record for O=C(Nc1ccccc1)NC1CCN(Cc2ccccc2)CC1 : -1.63
